- System: Wolbachia pipientis
- Experimental Protocol: Anti-Wolbachia Cell-Based Screen
- Type: functional
- Set-up: scale not given: in the data most compounds retested in dose-response had high values
- Measurement Conditions: 5 µM
Screen size: about 48,000 compounds; about 13,000 (27%) showed an effect of 50% or more. Some of the results follow.
Give Percent Effect for every item shown.
Write the value in % as a bare number.

Form field: reported Percent Effect of Cn1cc(N2CC3(CCN(CC4CC4)C3)CC2=O)cn1.O=C(O)C(F)(F)F (stereo not drawn) 3.9

Form field: reported Percent Effect of CC(C)(C)c1cc(C[C@H]2CNCC[C@H]2CC(=O)NCc2cccs2)no1 1.711

Form field: reported Percent Effect of Cc1ccc(CN2Cc3nccn3CC(Cn3cncn3)C2)s1.O=C(O)C(F)(F)F (stereo not drawn) 96.42

Form field: reported Percent Effect of Cc1cc(C(=O)NCc2ccc(F)cc2)c2c(C3CCCN3)noc2n1 (stereo not drawn) 101.4

Form field: reported Percent Effect of CCN(CC)CC1CN(Cc2ccc(C)s2)Cc2nccn2C1.O=C(O)C(F)(F)F.O=C(O)C(F)(F)F (stereo not drawn) -7.962

Form field: reported Percent Effect of Cc1nc(CN2C(=O)COC3(CCN(Cc4ccco4)CC3)C2C)cs1.O=C(O)C(F)(F)F (stereo not drawn) -6.139

Form field: reported Percent Effect of Cc1cc(C(=O)NCc2cccs2)c2c(C3CCCN3)noc2n1 (stereo not drawn) 99.02

Form field: reported Percent Effect of Fc1ccc(CN2CCO[C@H]3[C@H](OCC4CCCC4)CC[C@@H]32)cc1.O=C(O)C(F)(F)F 109

Form field: reported Percent Effect of CC(C)(C)CNC[C@H]1Cn2c(-c3ccccc3)cnc2CO1 -15.45

Form field: reported Percent Effect of Fc1ccc(CN2CCO[C@H]3[C@H](OCC4CC4)CC[C@@H]32)cc1.O=C(O)C(F)(F)F 2.778

Form field: reported Percent Effect of COc1nc2c(cc1C(=O)NCc1noc(Cc3cccs3)n1)CCC2 -29.09

Form field: reported Percent Effect of CCC(=O)N1CCN(C(=O)NC2CCc3ccccc3C2)CC1 (stereo not drawn) -5.895

Form field: reported Percent Effect of CCc1ccc2nc(C)cc(C(=O)N[C@@H]3CNC[C@H]3O)c2c1 -12.87

* * *

- System: Wolbachia pipientis
- Experimental Protocol: Anti-Wolbachia Cell-Based Screen
- Assay type: functional
- Set-up: scale not given: in the data most compounds retested in dose-response had high values
- Measurement Conditions: 5 µM
The whole screen tested about 48,000 compounds, of which about 13,000 (27%) showed an effect of 50% or more. This is one part of the list.
Assay Endpoint: Percent Effect (%)
Write the value in % as a bare number.

Form field: reported Percent Effect of Cc1cnc(C)c(N2CCN(CC3CCCO3)CC2)n1 (centres undefined) 94.75

Form field: reported Percent Effect of Cc1nc(CNC(=O)NC2CCCN(c3ncccn3)C2)cs1 (centres undefined) 115.1

Form field: reported Percent Effect of Cc1csc(CNC(=O)NC2CCN(c3ncccn3)CC2)n1 3.023

Form field: reported Percent Effect of Cc1cc(NC2CCN(CC3CCCO3)CC2)n2nc(C)c(C)c2n1 (centres undefined) 11.1

Form field: reported Percent Effect of Cc1nc(CCNC(=O)NC2CCCN(c3ncccn3)C2)cs1 (centres undefined) 107.1

Form field: reported Percent Effect of COC(=O)c1ccc(NC2CCN(CC(F)(F)F)C2=O)cc1C (centres undefined) 4.628

Form field: reported Percent Effect of COC(=O)N1CCCC(NC(=O)NCc2csc(C)n2)C1 (centres undefined) -0.338

Form field: reported Percent Effect of CCN(CC)CCNCc1cc(O)c2cc(C)ccc2n1 11.73

Form field: reported Percent Effect of Cc1nc(CCNC(=O)NC2CCN(c3ncccn3)CC2)cs1 9.255
